A collection of compounds and their measured TGI
- Test system: SK-MEL-2 melanoma
- experiment: NCI tumour cell line growth inhibition, 48 h

Please review the entries below; each comes with its answer.
[[record]]
compound = "O=C(Nc1cccc(C(F)(F)F)c1)c1cc(-c2ccccc2)nc(=S)[nH]1"
systemundertest = "SK-MEL-2 melanoma"
result = "> 100 µM"

[[record]]
compound = "O=c1c(S(=O)(=O)Oc2ccccc2)coc2cc(F)ccc12"
systemundertest = "SK-MEL-2 melanoma"
result = "> 100 µM"

[[record]]
compound = "Cc1ccc(Nc2nc(NS(=O)(=O)c3cc(C)c(Cl)cc3S)n[nH]2)cc1"
systemundertest = "SK-MEL-2 melanoma"
result = "> 100 µM"


## Input Request the reported TGI associated with Cc1nn(C(=O)c2ccc(Cl)cc2)c2c1C(c1ccco1)SC(N)=N2 (stereo unspecified)
## Output > 10 µM

## Input Request the reported TGI associated with CC(C)(C)c1cc(C2NC(=O)NC2=O)cc(C(C)(C)C)c1O (stereo unspecified)
## Output > 100 µM

## Input Request the reported TGI associated with COc1ccc2c(c1)C(=O)c1c-2n(CCCCl)c(=O)c2cc(N(C)C)ccc12
## Output > 100 µM

## Input Request the reported TGI associated with CC1=N/C(=C\c2cccc3ccccc23)C(=O)O1
## Output > 100 µM

## Input Request the reported TGI associated with COc1cc(C2C3=C(N=C4SC(C(C)=O)=C(C)N42)c2ccccc2CC3)cc(OC)c1OC (stereo unspecified)
## Output > 100 µM

## Input Request the reported TGI associated with Cc1ccsc1/C=N/Nc1ccccn1
## Output > 100 µM

----------
A collection of molecules and their measured TGI
- System: HL-60(TB) leukemia
- experiment: NCI tumour cell line growth inhibition, 48 h

Please review the entries below; each comes with its answer.
[[record]]
molecule = "Clc1ccc(-c2nn3c(C45CC6CC(CC(C6)C4)C5)nnc3s2)cc1"
measuredparameter = "TGI"
result = "> 100 µM"

[[record]]
molecule = "O=[N+]([O-])c1ccc2c(c1)S(=O)c1ccccc1-2 (stereo unspecified)"
measuredparameter = "TGI"
result = "> 100 µM"

[[record]]
molecule = "CCOC(=O)C12C(=O)CCN1CCc1ccccc1C2C (stereo unspecified)"
measuredparameter = "TGI"
result = "> 100 µM"

[[record]]
molecule = "C#CC#CC#CC#CC#CC#CC#CC#CCC1OC[C@H](COC(=O)O[C@@H](C(=O)O[C@H]2C[C@@]3(O)[C@@H](OC(=O)c4ccccc4)[C@@H]4[C@]5(OC(C)=O)CO[C@@H]5C[C@H](O)[C@@]4(C)C(=O)[C@H](OC(C)=O)C(=C2C)C3(C)C)[C@@H](NC(=O)c2ccccc2)c2ccccc2)O1 (stereo partly specified)"
measuredparameter = "TGI"
result = "> 10.9 µM"

[[record]]
molecule = "CC(CC(C)(C)[N+](C)(C)C)[N+](C)(C)C (stereo unspecified)"
measuredparameter = "TGI"
result = "> 100 µM"


## Input Request the reported TGI associated with Cc1[nH]c(=O)[nH]c(=O)c1C(=O)N(CCO)Cc1ccccc1
## Output > 100 µM

----------
- Tested on: SK-MEL-28 melanoma
- experiment: NCI tumour cell line growth inhibition, 48 h
measuredParameter: TGI

Please review the entries below; each comes with its answer.
[[record]]
compound = "COc1cccc(/C=N/n2c(Cc3ccc(Cl)cc3)n[nH]c2=O)c1"
measuredparameter = "TGI"
result = "> 100 µM"

[[record]]
compound = "c1ccc2c(c1)ccc1c3ccccc3ccc21"
measuredparameter = "TGI"
result = "> 50 µM"


Proceeding to the next compound to report its TGI.
## Input What is its TGI for SK-MEL-28 melanoma? Entry: COC(=O)C(=O)C(C#N)c1ccc(Cl)c(Cl)c1 (stereo not drawn)
## Output > 100 µM
